system.name: T1, recombinant human IL6 (human, UniProt P05231 30-212)
T1 construct: Amine-coupled to a CM5 chip in the Biacore assay; used biotinylated in the Alphascreen assays; also called interleukin-6; biotinylated human IL6
test.description: SPR, Biacore 3000; IL6 amine-coupled on CM5 chip, periplasmic extract injected
Items are presented alongside their recorded koff.
parameter: koff (s⁻¹)

>>> quantitative_result("PMP12H3 (VHH, Monovalent Nanobody) VHH: AVQLVDSGGGLVQAGGSLRLSCAASGGTFTSYPMGWFRQAPGKERKFVAGISQSGGSTAYSDSVKGRFTISRENAKTTVYLQMNSLKPEDTAVYYCAARGRTLFLRDYAYTTEVGYDDWGQGTQVTVSS")
0.000243
>>> quantitative_result("PMP7H3 (VHH, Monovalent Nanobody) VHH: DVQLVESGGGLVQPGGSLRLSCAASGFTLDYYGVGWFRQAPGKEREGVSCISSSDGDTYYADSVKGRFTISRDNAKNTVYLQMNSLKPEDTAVYYCATDLSDYGVCSRWPSPYDYWGQGTQVTVSS")
0.00309
>>> quantitative_result("PMP21A7 (VHH, Monovalent Nanobody) VHH: AVQLVESGGGLVQAGSSLRLSCAASGRTFSPYTMGWFRQPPGKVREFVGRINWSGITNYADSVKGRFTISRDNNKNTVYLQMNRLKPEDTAVYYCAAASRSGSGYDSWGQGTQVTVSS")
0.000526
>>> quantitative_result("NC6 (VHH, Monovalent Nanobody) VHH: EVQLVESGGGLVQAGGSLRLSCAASGPTFSSYAMGWFRQAPGKDREFVAAISSNGGSTRYADSVKGRFTISRDSAKNTAYLQMNSLKLEDTAVYYCAADETTGWVQLADFRSWGQGTQVTVSS")
0.00082
